TARGET UNDER TEST: T1, human CD3 E&D complex protein (Sino Biological Inc., CT026H0323H) (human, UniProt P07766 23-126; P04234 22-105)
T1 construct: bought heterodimer; also called human CD3 protein (CT026H0323H)
T1 sequence (P07766 23-126, chain 1 of 2): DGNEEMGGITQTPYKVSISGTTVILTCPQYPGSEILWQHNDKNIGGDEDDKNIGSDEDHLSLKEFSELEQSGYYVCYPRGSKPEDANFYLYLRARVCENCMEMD
T1 sequence (P04234 22-105, chain 2 of 2): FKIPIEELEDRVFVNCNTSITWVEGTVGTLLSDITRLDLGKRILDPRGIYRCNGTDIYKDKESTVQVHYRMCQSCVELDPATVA
TEST DETAILS: BLI, antibody on sensor
Provide the recorded Kd for the entries that follow.
Give just the numeric value; nM need not be written.

Kd recorded for this binder, hzsp34.88 (antibody, human IgG1, lambda, L234A L235A, V domains shown, CDR mutant of hzsp34.24; IgG1 L234A L235A, lambda) VH: EVQLVESGGGLVQPGGSLKLSCAASGFTFNTYAMNWVRQASGKGLEWVGRIRSKYNNYATYYADSVKDRFTISRDDSKSTLYLQMNSLKTEDTAVYYCARHGGFGQSYVSWFAYWGQGTTVTVSS VL: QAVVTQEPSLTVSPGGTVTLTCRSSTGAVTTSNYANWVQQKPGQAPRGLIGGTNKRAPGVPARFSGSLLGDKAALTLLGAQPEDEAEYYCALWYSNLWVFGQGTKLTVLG , is 4.55

Kd recorded for this binder, hzsp34.109 (antibody, human IgG1, lambda, L234A L235A, V domains shown, CDR mutant of hzsp34.24; IgG1 L234A L235A, lambda) VH: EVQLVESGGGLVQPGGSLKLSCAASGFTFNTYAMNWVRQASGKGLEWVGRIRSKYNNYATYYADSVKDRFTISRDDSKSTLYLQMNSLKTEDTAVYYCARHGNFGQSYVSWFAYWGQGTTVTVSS VL: QAVVTQEPSLTVSPGGTVTLTCRSSTGAVTTSNYANWVQQKPGQAPRGLIGGTNKRAPGVPARFSGSLLGDKAALTLLGAQPEDEAEYYCALWYRNLWVFGQGTKLTVLG , is 1.15

Kd recorded for this binder, hzsp34.82 (antibody, human IgG1, lambda, L234A L235A, V domains shown, CDR mutant of hzsp34.24; IgG1 L234A L235A, lambda) VH: EVQLVESGGGLVQPGGSLKLSCAASGFTFNTYAMNWVRQASGKGLEWVGRIRLKYNNYATYYADSVKDRFTISRDDSKSTLYLQMNSLKTEDTAVYYCARHGNFGQSYVSWFAYWGQGTTVTVSS VL: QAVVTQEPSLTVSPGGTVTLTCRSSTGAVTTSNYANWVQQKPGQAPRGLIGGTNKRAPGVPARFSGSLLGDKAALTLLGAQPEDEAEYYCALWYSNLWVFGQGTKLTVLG , is 10.3

Kd recorded for this binder, hzsp34.80 (antibody, human IgG1, lambda, L234A L235A, V domains shown, CDR mutant of hzsp34.24; IgG1 L234A L235A, lambda) VH: EVQLVESGGGLVQPGGSLKLSCAASGFTFNTAAMNWVRQASGKGLEWVGRIRSKYNNYATYYADSVKDRFTISRDDSKSTLYLQMNSLKTEDTAVYYCARHGNFGQSYVSWFAYWGQGTTVTVSS VL: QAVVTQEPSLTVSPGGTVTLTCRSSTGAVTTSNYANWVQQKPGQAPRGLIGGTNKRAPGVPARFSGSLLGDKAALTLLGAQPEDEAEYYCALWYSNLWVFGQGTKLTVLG , is 6.55

Kd recorded for this binder, hzsp34.91 (antibody, human IgG1, lambda, L234A L235A, V domains shown, CDR mutant of hzsp34.24; IgG1 L234A L235A, lambda) VH: EVQLVESGGGLVQPGGSLKLSCAASGFTFNTYAMNWVRQASGKGLEWVGRIRSKYNNYATYYADSVKDRFTISRDDSKSTLYLQMNSLKTEDTAVYYCARHGNFGGSYVSWFAYWGQGTTVTVSS VL: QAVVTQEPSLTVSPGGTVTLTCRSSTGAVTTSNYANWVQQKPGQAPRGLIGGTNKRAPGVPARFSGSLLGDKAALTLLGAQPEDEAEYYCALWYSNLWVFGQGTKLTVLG , is 1.88

Kd recorded for this binder, hzsp34.98 (antibody, human IgG1, lambda, L234A L235A, V domains shown, CDR mutant of hzsp34.24; IgG1 L234A L235A, lambda) VH: EVQLVESGGGLVQPGGSLKLSCAASGFTFNTYAMNWVRQASGKGLEWVGRIRSKYNNYATYYADSVKDRFTISRDDSKSTLYLQMNSLKTEDTAVYYCARHYGFGQSYVSWFAYWGQGTTVTVSS VL: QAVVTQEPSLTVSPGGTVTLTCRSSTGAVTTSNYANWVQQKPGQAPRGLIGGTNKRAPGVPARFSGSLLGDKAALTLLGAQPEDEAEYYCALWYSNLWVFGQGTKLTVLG , is 9.15

Kd recorded for this binder, hzsp34.85 (antibody, human IgG1, lambda, L234A L235A, V domains shown, CDR mutant of hzsp34.24; IgG1 L234A L235A, lambda) VH: EVQLVESGGGLVQPGGSLKLSCAASGFTFNTYAMNWVRQASGKGLEWVGRIRSKYNGYATYYADSVKDRFTISRDDSKSTLYLQMNSLKTEDTAVYYCARHGNFGQSYVSWFAYWGQGTTVTVSS VL: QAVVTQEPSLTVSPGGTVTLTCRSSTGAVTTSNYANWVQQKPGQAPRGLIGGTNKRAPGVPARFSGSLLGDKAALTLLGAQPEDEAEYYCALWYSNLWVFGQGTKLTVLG , is 1.32

Kd recorded for this binder, hzsp34.24 (antibody, human IgG1, lambda, L234A L235A, V domains shown, IgG1 L234A L235A, lambda; parent of the CDR mutants) VH: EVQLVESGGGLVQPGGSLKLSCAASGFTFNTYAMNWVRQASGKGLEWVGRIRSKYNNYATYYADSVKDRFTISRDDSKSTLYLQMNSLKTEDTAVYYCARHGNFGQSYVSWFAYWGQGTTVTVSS VL: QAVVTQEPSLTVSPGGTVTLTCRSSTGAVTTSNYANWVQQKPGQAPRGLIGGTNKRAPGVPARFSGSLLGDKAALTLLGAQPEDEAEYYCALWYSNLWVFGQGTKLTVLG , is 0.975

Kd recorded for this binder, hzsp34.87 (antibody, human IgG1, lambda, L234A L235A, V domains shown, CDR mutant of hzsp34.24; IgG1 L234A L235A, lambda) VH: EVQLVESGGGLVQPGGSLKLSCAASGFTFNTYAMNWVRQASGKGLEWVGRIRSKYNNYATYYADSVKDRFTISRDDSKSTLYLQMNSLKTEDTAVYYCARHYNFGQSYVSWFAYWGQGTTVTVSS VL: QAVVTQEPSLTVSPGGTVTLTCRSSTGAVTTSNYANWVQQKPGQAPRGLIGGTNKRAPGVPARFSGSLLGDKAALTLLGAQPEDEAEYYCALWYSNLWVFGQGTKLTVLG , is 0.88

Kd recorded for this binder, hzsp34.86 (antibody, human IgG1, lambda, L234A L235A, V domains shown, CDR mutant of hzsp34.24; IgG1 L234A L235A, lambda) VH: EVQLVESGGGLVQPGGSLKLSCAASGFTFNTYAMNWVRQASGKGLEWVGRIRSKYNNYATYYADSVKDRFTISRDDSKSTLYLQMNSLKTEDTAVYYCARAGNFGQSYVSWFAYWGQGTTVTVSS VL: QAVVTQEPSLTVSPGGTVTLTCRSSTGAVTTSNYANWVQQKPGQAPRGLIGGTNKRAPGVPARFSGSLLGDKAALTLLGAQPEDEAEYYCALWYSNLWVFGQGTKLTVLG , is 1.39
